tested on: Human alphaherpesvirus 1; test: Minimal inhibitory concentration to reduce virus-induced cytopathicity against Thymidine kinase deficient(TK-) HSV-1 of Acyclovir; format: functional
Assay Metric: MIC

Consider the following illustrative entries.
Smiles Record	MIC
OCCOCn1cnc2c(O)n3c(C(c4ccccc4)(c4ccccc4)c4ccccc4)cnc3nc21	> 16 µg/mL
COc1ccc(-c2cn3c(O)c4ncn(COCCO)c4nc3n2)cc1	5.9 µg/mL
Nc1nc2c(ncn2COC(CO)CO)c(=O)[nH]1	0.48 µg/mL
COc1ccccc1-c1cn2c(O)c3ncn(COCCO)c3nc2n1	> 80 µg/mL
CC(=O)OCCOCn1cnc2c(O)n3cc(-c4ccc5ccccc5c4)nc3nc21	> 16 µg/mL

Hi there! I need MIC for each item below, if you can.
1. COc1ccc(OC)c(-c2cn3c(O)c4ncn(COCCO)c4nc3n2)c1
2. OCCOCn1cnc2c(O)n3c(-c4ccccc4)c(-c4ccccc4)nc3nc21
3. OCCOCn1cnc2c(O)n3c(CO)cnc3nc21
4. COc1ccc(-c2nc3nc4c(ncn4COCCO)c(O)n3c2-c2ccc(C(c3ccccc3)c3ccccc3)cc2)cc1
5. COc1ccc(-c2cn3c(O)c4ncn(COCCO)c4nc3n2)c(OC)c1
6. Cc1nc2nc3c(ncn3COCCO)c(O)n2c1C(c1ccccc1)(c1ccccc1)c1ccccc1

stdout:
["> 16 µg/mL", "> 16 µg/mL", "> 3.2 µg/mL", "> 16 µg/mL", "> 16 µg/mL", "> 16 µg/mL"]
